Provide the reported CC50 of each item.
- assay: NOVARTIS: Cytotoxicity against human hepatocellular carcinoma cell line (Huh7)
- Assay type: toxicity, cell-based, Huh-7
- protocol.conditions: Huh7 cells (hepatocellular carcinoma cell line)

# example entries with known answers
{"columns": ["molecule", "CC50"],
 "data": [
  ["CCCCCCc1ccc(/C(C=[N+](C)C)=C\\N(C)C)cc1", "> 10 µM"],
  ["Cc1oc2c(c1C(=O)N1CCCC1)C(=O)c1ccccc1C2=O", "9.86 µM"],
  ["C=CCSC1=NC2(CC(c3ccccc3)c3cc(Cl)c(O)cc3O2)CC(C)(C)N1 (stereo unspecified)", "> 10 µM"]
]}

Each molecule below has a reported value. Please supply its CC50.
1. O=C(c1ccc(N2CC3CC(C2)c2cccc(=O)n2C3)c(NS(=O)(=O)c2ccc3c(c2)OCCO3)c1)N1CCN(c2ccccn2)CC1 (stereo unspecified)
2. COc1ccc(NC(=O)NCc2cccn2Cc2ccc(F)cc2)cc1OC
3. CCCCN(CC)C(=O)CSc1nc2ccccc2c(=O)n1Cc1ccco1
4. COc1cc(C(=O)N2C(C(=O)Nc3ccccc3F)CSC2c2ccc(C(C)(C)C)cc2)cc(OC)c1OC (stereo unspecified)
5. CCCC(=O)N1CCN(C(=O)c2nc(-c3ccccc3)nc(C(C)C)c2C(=O)OC)CC1C (stereo unspecified)
6. CC1CC(C)(C)NC(=S)N1CCC(=O)NCCc1ccccc1 (stereo unspecified)
7. COc1ccccc1N1C(=N)S/C(=C\c2ccc(OCc3ccccc3F)cc2)C1=O
8. O=C1CN(C(=O)CCC2CCCC2)C(c2ccc(F)cc2)c2cc(F)ccc2N1 (stereo unspecified)

[A]
1: > 100 µM; 2: > 10 µM; 3: > 10 µM; 4: > 2.31 µM; 5: > 8.44 µM; 6: > 10 µM; 7: > 10 µM; 8: 60.3 µM

Each molecule below has a reported value. Please supply its CC50.
1. Cc1ccc(NC(=O)c2sc3nc4c(c(-c5cccs5)c3c2N)CCCCC4)cc1
2. OCCCCCCCCCCC[n+]1ccccc1
3. CCCCCN(C(=O)c1ccc(C)cc1)C(CC)c1nc2ccccc2c(=O)n1-c1ccccc1OC (stereo unspecified)
4. CC(=O)Nc1ccc2c(c1)C(=O)N(C(C(=O)NCC(=O)O)C1CCCCC1)[C@@H](CCC(=O)O)C(=O)N2 (stereo partly specified)
5. CC(=O)NC(c1ccc(N(C)C)cc1)c1cc(Cl)c2cccnc2c1O (stereo unspecified)
6. COc1ccc2nc(NC(=N)N)nc(C)c2c1
7. COc1ccc2[nH]c3c(=O)n(C)cnc3c2c1
8. Nc1c(C(=O)Nc2ccc(F)cc2)sc2nc3c(c(-c4cccs4)c12)CCCCC3

[A]
1. > 100 µM
2. > 100 µM
3. > 10 µM
4. > 10 µM
5. > 100 µM
6. 57.5 µM
7. > 10 µM
8. > 100 µM

Each molecule below has a reported value. Please supply its CC50.
1. COc1ccc([N+](=O)[O-])cc1-c1ccc(/C=C(\C#N)c2nn(CCO)c(N)c2C#N)o1
2. CCCNC(=O)CSc1nc(C)c(Cc2ccccc2)c(=O)n1C

[A]
> 10 µM
> 10 µM

---

- assay: NOVARTIS: Cytotoxicity against human hepatocellular carcinoma cell line (Huh7)
- Format: toxicity, cell-based, Huh-7
- protocol.conditions: Huh7 cells (hepatocellular carcinoma cell line)
recorded.endpoint: CC50 (µM)
Numbers only, in µM.

Each molecule below has a reported value. Please supply its CC50.
1. OCCNc1nc(Nc2cccc(O)c2)nc2ccccc12
2. CC(=O)Nc1nc(C)c(-c2csc(Nc3ccc(C)cc3)n2)s1
3. CCOc1ccc2nc(C)cc(Nc3cccc(O)c3)c2c1
4. c1ccc2c(c1)ccc1cc3cccc[n+]3cc12

[A]
1: 69.5; 2: 23.6; 3: 19.8; 4: 37
